// Two-photon absorption cross-section σ lookup, one value per entry
# PROCEDURE SUMMARY: Measurement of two-photon absorption cross-section (z-scan technique, 405 nm)
# Assay type: physicochemical
# ASSAY CONTEXT: light of wavelength 405 nm; Ti:sapphire pulsed laser second harmonic, pulse width 80 fs, 1 kHz

COMPOUND | Two-photon absorption cross-section σ, GM
COc1cc(Br)c(-c2cc(OC)c(OC)cc2-c2cc(OC)c(OC)cc2-c2cc(OC)c(OC)cc2-c2cc(OC)c(OC)cc2-c2cc(OC)c(OC)cc2-c2cc(OC)c(OC)cc2-c2cc(OC)c(OC)cc2Br)cc1OC | 73
COc1cc(Br)c(-c2cc(OC)c(OC)cc2-c2cc(OC)c(OC)cc2-c2cc(OC)c(OC)cc2-c2cc(OC)c(OC)cc2-c2cc(OC)c(OC)cc2-c2cc(OC)c(OC)cc2-c2cc(OC)c(OC)cc2-c2cc(OC)c(OC)cc2-c2cc(OC)c(OC)cc2-c2cc(OC)c(OC)cc2-c2cc(OC)c(OC)cc2Br)cc1OC | 71
C(#Cc1c(C#Cc2ccccc2)c(C#Cc2ccccc2)c(C#Cc2ccccc2)c(C#Cc2ccccc2)c1C#Cc1ccccc1)c1ccccc1 [compound 1, hexakis(phenylethynyl)benzene, reference compound] | 23000

====

// Ratio σ/ε lookup, one value per entry
# PROCEDURE SUMMARY: Measurement of two-photon absorption cross-section (z-scan technique, 405 nm)
# Assay type: physicochemical
# ASSAY CONTEXT: two-photon absorption cross-section σ (GM) to molar absorption coefficient ε at 405 nm
# From the text: The two-photon absorption cross-section of the compound A irradiated with light having a wavelength of 405 nm may be greater than or equal to 1 GM, may be greater than or equal to 10 GM, may be greater than or equal to 30 GM, may be greater than or equal to 50 GM, may be greater than or equal to 70 GM, may be greater than or equal to 100 GM, may be greater than or equal to 200 GM, or may be greater than or equal to 300 GM. […]

MOLECULE | Ratio σ/ε
COc1cc(Br)c(-c2cc(OC)c(OC)cc2-c2cc(OC)c(OC)cc2-c2cc(OC)c(OC)cc2-c2cc(OC)c(OC)cc2-c2cc(OC)c(OC)cc2-c2cc(OC)c(OC)cc2-c2cc(OC)c(OC)cc2Br)cc1OC | 72
C(#Cc1c(C#Cc2ccccc2)c(C#Cc2ccccc2)c(C#Cc2ccccc2)c(C#Cc2ccccc2)c1C#Cc1ccccc1)c1ccccc1 [compound 1, hexakis(phenylethynyl)benzene, reference compound] | 10
OC(C#Cc1ccc(N(c2ccc(C#CC(O)(c3ccccc3)c3ccccc3)cc2)c2ccc(C#CC(O)(c3ccccc3)c3ccccc3)cc2)cc1)(c1ccccc1)c1ccccc1 [compound 2, reference compound] | 5
COc1cc(Br)c(-c2cc(OC)c(OC)cc2-c2cc(OC)c(OC)cc2-c2cc(OC)c(OC)cc2-c2cc(OC)c(OC)cc2-c2cc(OC)c(OC)cc2-c2cc(OC)c(OC)cc2-c2cc(OC)c(OC)cc2-c2cc(OC)c(OC)cc2-c2cc(OC)c(OC)cc2-c2cc(OC)c(OC)cc2-c2cc(OC)c(OC)cc2-c2cc(OC)c(OC)cc2-c2cc(OC)c(OC)cc2Br)cc1OC | 167
COc1cc(Br)c(-c2cc(OC)c(OC)cc2-c2cc(OC)c(OC)cc2-c2cc(OC)c(OC)cc2-c2cc(OC)c(OC)cc2-c2cc(OC)c(OC)cc2-c2cc(OC)c(OC)cc2-c2cc(OC)c(OC)cc2-c2cc(OC)c(OC)cc2-c2cc(OC)c(OC)cc2-c2cc(OC)c(OC)cc2-c2cc(OC)c(OC)cc2-c2cc(OC)c(OC)cc2-c2cc(OC)c(OC)cc2-c2cc(OC)c(OC)cc2-c2cc(OC)c(OC)cc2Br)cc1OC | 223
COc1cc(Br)c(-c2cc(OC)c(OC)cc2-c2cc(OC)c(OC)cc2-c2cc(OC)c(OC)cc2Br)cc1OC | 38
COc1cc(Br)c(-c2cc(OC)c(OC)cc2-c2cc(OC)c(OC)cc2-c2cc(OC)c(OC)cc2-c2cc(OC)c(OC)cc2-c2cc(OC)c(OC)cc2-c2cc(OC)c(OC)cc2-c2cc(OC)c(OC)cc2-c2cc(OC)c(OC)cc2-c2cc(OC)c(OC)cc2-c2cc(OC)c(OC)cc2-c2cc(OC)c(OC)cc2Br)cc1OC | 142

====

# PROCEDURE SUMMARY: Measurement of molar absorption coefficient (JIS K0115: 2004, 405 nm)
# Assay type: physicochemical
# ASSAY CONTEXT: absorbance at 405 nm; compound concentration 500 mmol/L
Assign class by Molar absorption coefficient ε: not lower than 1 L/mol/cm means 1; lower than 1 L/mol/cm means -1.

COMPOUND | GROUP LABEL
COc1cc(Br)c(-c2cc(OC)c(OC)cc2-c2cc(OC)c(OC)cc2-c2cc(OC)c(OC)cc2Br)cc1OC | 1
COc1cc(Br)c(-c2cc(OC)c(OC)cc2-c2cc(OC)c(OC)cc2-c2cc(OC)c(OC)cc2-c2cc(OC)c(OC)cc2-c2cc(OC)c(OC)cc2-c2cc(OC)c(OC)cc2-c2cc(OC)c(OC)cc2-c2cc(OC)c(OC)cc2-c2cc(OC)c(OC)cc2-c2cc(OC)c(OC)cc2-c2cc(OC)c(OC)cc2Br)cc1OC | -1
OC(C#Cc1ccc(N(c2ccc(C#CC(O)(c3ccccc3)c3ccccc3)cc2)c2ccc(C#CC(O)(c3ccccc3)c3ccccc3)cc2)cc1)(c1ccccc1)c1ccccc1 [compound 2, reference compound] | 1
COc1cc(Br)c(-c2cc(OC)c(OC)cc2-c2cc(OC)c(OC)cc2-c2cc(OC)c(OC)cc2-c2cc(OC)c(OC)cc2-c2cc(OC)c(OC)cc2-c2cc(OC)c(OC)cc2-c2cc(OC)c(OC)cc2-c2cc(OC)c(OC)cc2-c2cc(OC)c(OC)cc2-c2cc(OC)c(OC)cc2-c2cc(OC)c(OC)cc2-c2cc(OC)c(OC)cc2-c2cc(OC)c(OC)cc2-c2cc(OC)c(OC)cc2-c2cc(OC)c(OC)cc2Br)cc1OC | 1
C(#Cc1c(C#Cc2ccccc2)c(C#Cc2ccccc2)c(C#Cc2ccccc2)c(C#Cc2ccccc2)c1C#Cc1ccccc1)c1ccccc1 [compound 1, hexakis(phenylethynyl)benzene, reference compound] | 1
COc1cc(Br)c(-c2cc(OC)c(OC)cc2-c2cc(OC)c(OC)cc2-c2cc(OC)c(OC)cc2-c2cc(OC)c(OC)cc2-c2cc(OC)c(OC)cc2-c2cc(OC)c(OC)cc2-c2cc(OC)c(OC)cc2-c2cc(OC)c(OC)cc2-c2cc(OC)c(OC)cc2-c2cc(OC)c(OC)cc2-c2cc(OC)c(OC)cc2-c2cc(OC)c(OC)cc2-c2cc(OC)c(OC)cc2Br)cc1OC | -1

====

# PROCEDURE SUMMARY: Measurement of two-photon absorption cross-section (z-scan technique, 405 nm)
# Format: physicochemical
# ASSAY CONTEXT: light of wavelength 405 nm; Ti:sapphire pulsed laser second harmonic, pulse width 80 fs, 1 kHz

COMPOUND | Two-photon absorption cross-section σ
COc1cc(Br)c(-c2cc(OC)c(OC)cc2-c2cc(OC)c(OC)cc2-c2cc(OC)c(OC)cc2-c2cc(OC)c(OC)cc2-c2cc(OC)c(OC)cc2-c2cc(OC)c(OC)cc2-c2cc(OC)c(OC)cc2-c2cc(OC)c(OC)cc2-c2cc(OC)c(OC)cc2-c2cc(OC)c(OC)cc2-c2cc(OC)c(OC)cc2-c2cc(OC)c(OC)cc2-c2cc(OC)c(OC)cc2Br)cc1OC | 82 GM
COc1cc(Br)c(-c2cc(OC)c(OC)cc2-c2cc(OC)c(OC)cc2-c2cc(OC)c(OC)cc2Br)cc1OC | 51 GM
COc1cc(Br)c(-c2cc(OC)c(OC)cc2-c2cc(OC)c(OC)cc2-c2cc(OC)c(OC)cc2-c2cc(OC)c(OC)cc2-c2cc(OC)c(OC)cc2-c2cc(OC)c(OC)cc2-c2cc(OC)c(OC)cc2-c2cc(OC)c(OC)cc2-c2cc(OC)c(OC)cc2-c2cc(OC)c(OC)cc2-c2cc(OC)c(OC)cc2-c2cc(OC)c(OC)cc2-c2cc(OC)c(OC)cc2-c2cc(OC)c(OC)cc2-c2cc(OC)c(OC)cc2Br)cc1OC | 336 GM
OC(C#Cc1ccc(N(c2ccc(C#CC(O)(c3ccccc3)c3ccccc3)cc2)c2ccc(C#CC(O)(c3ccccc3)c3ccccc3)cc2)cc1)(c1ccccc1)c1ccccc1 [compound 2, reference compound] | 380 GM
